# SYSTEM: GCN2_T
# TEST: two-hybrid library CCmax;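 further: natural log of median RNA to DNA barcode read ratio; higher means stronger binding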
MEASURED METRIC: interaction score
Answers are plain numbers.

Observe how each entry below is paired with its result.
BINDER: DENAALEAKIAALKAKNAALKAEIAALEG [4H1401-AA]
interaction score: -1.62

BINDER: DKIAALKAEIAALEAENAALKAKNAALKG [4H2592-AA]
interaction score: -1.04

BINDER: DEIAALEAKNAALKAKIAALEAKIAALKG [4H486-AA]
interaction score: -0.249

Please turn your attention to the following entry.
Prompt: For the binder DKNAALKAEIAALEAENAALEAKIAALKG [4H3606-AA] , what interaction score is on record?
Response: -0.266
